Known koff of a selection of binders
Target: T1, mouse CTGF (Abbexa) (mouse, UniProt P29268 26-348, limits assumed)
T1 construct: also called Murine CTGF; mCTGF
T1 sequence (looked up): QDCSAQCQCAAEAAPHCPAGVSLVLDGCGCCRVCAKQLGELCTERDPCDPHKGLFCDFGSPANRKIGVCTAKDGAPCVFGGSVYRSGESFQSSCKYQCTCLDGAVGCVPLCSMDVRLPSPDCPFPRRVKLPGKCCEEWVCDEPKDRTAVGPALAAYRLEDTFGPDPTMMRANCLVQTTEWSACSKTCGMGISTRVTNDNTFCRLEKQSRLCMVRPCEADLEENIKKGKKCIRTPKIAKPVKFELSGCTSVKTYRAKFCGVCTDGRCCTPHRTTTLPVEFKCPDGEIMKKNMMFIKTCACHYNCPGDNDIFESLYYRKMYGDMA
Assay: SPR (Biacore)
Give the value, in units of s⁻¹, as a plain number.

Worked cases, koff given:
lipocalin mutein of SEQ ID NO: 26 (designed binder, also called hNGAL mutein; not shown: C-terminal His-tag) QDSTSDLIPAPPLSKVPLQQNFQDNQFQGKWYVVGLAGNYRLREDKDPSKMGATIYELKEDKSYDVTQVQFDDKKCLYVIETFVPGSQPGEFTLGNIKVYPTLESQLVRVVSTNYNQHAMVFFKKVYQNREVFWITLYGRTKELTSELKENFIRFSKSLGLPENHIVFPVPIDQCIDG; 0.000208
lipocalin mutein of SEQ ID NO: 11 (designed binder, also called hNGAL mutein; not shown: C-terminal His-tag) QDSTSDLIPAPPLSKVPLQQNFQDNQFQGKWYVVGLAGNAILREDKQPAKMFATIYELKEDKSYDVTSVRFEAKSCSYTSKTFVPGSQPGEFTAGNIKSAPGQTSTLVRVVSTNYNQHAMVFFKHVSQNRETFVITLYGRTKELTSELKENFIRFSKSLGLPENHIVFPVPIDQCIDG; 8.19e-05

Query binder follows.
# input What does the record list as koff for lipocalin mutein of SEQ ID NO: 15 (designed binder, also called hNGAL mutein; not shown: C-terminal His-tag) QDSTSDLIPAPPLSKVPLQQNFQDNQFQGKWYVVGLAGNAILREDKQPAKMFATIYELKEDKSYDVTSVRFEAKSCKYTIKTFVPGSQPGEFTAGYIKSAPGQTSTLVRVVSTNYNQHAMVFFKHVTQNREIFVITLYGRTKELTSELKENFIRFSKSLGLPENHIVFPVPIDQCIDG ?
# output 4.51e-05
